The reported measurements were obtained from PubChem BioAssay AID844.

test system: MRP1 cells, doxorubicin viability shift, 10 uM compound; assay: viability protection against doxorubicin, MRP-1 line – cell-based, doxorubicin EC50 shift, dose response (AID 844)
fold increase in Dox EC50 less than 0.8 is true; fold increase in Dox EC50 greater than or equal to 0.8 is false.

Reference set, count: 3
**Query** # TODO verify fold increase in Dox EC50 < 0.8 strictly for this compound: `Cc1ccc(C(C)C)c(OCc2nc(-c3nonc3N)no2)c1`
**Result** false

**Query** Further, for `COc1cc(/C=C(\C#N)c2ccccn2)ccc1OCc1ccccc1Cl` ?
**Result** false

**Query** Further, for `CCOc1ccccc1CNC(=O)c1cc2oc3ccccc3c2n1CC` ?
**Result** false

***
**Query** # TODO verify fold increase in Dox EC50 < 0.8 strictly for this compound: CCOC(=O)c1ccc(N2C(=O)c3n[nH]c(C)c3C2c2ccc(OC)cc2OC)cc1 (stereo unspecified)
**Result** true

**Query** Further, for `O=C(COc1ccc(Cl)cc1)NCc1nnc(SCC(=O)NCc2ccc3c(c2)OCO3)o1` ?
**Result** false

**Query** Further, for CCOc1ccc(C2CC(c3ccc(CC)cc3)Nc3nc(N)nn32)cc1 (stereo unspecified) ?
**Result** false

**Query** Further, for `C=CCNC(=O)c1ccccc1NC(=O)c1ccc(Cl)c(S(=O)(=O)Nc2cccc(C)c2C)c1` ?
**Result** true

**Query** Further, for `NC(=O)C1(N2CCCCC2)CCN(C(=O)c2cccn3c(=O)c4cc(Cl)ccc4nc23)CC1` ?
**Result** true

**Query** Further, for `CCc1nccn1C(=O)c1cnn2c(C(F)F)cc(-c3ccc(C)cc3)nc12` ?
**Result** true

**Query** Further, for Cc1ccc(OCc2nnc(SC3CCc4ccccc4C3=O)n2C)cc1 (stereo unspecified) ?
**Result** false

**Query** Further, for `Cn1cc(Br)c(C(=O)NNC(=O)c2ccc(Br)cc2)n1` ?
**Result** false

**Query** Further, for `COc1ccc(OC)c(-c2csc(NC(=O)C3c4ccccc4Oc4ccccc43)n2)c1` ?
**Result** false
